molecular target: Protein-tyrosine kinase 6 (Homo sapiens); details: at 1 µM
Description: GSK_PKIS: BRK mean inhibition at 1 uM [Nanosyn]
// reported inhibition for each item listed
endpoint: inhibition (%)

molecule=COC(=O)Nc1nc2ccc(Oc3ccc(NC(=O)Nc4cccc(Cl)c4)cc3)cc2[nH]1 endpoint=inhibition experimentalvalue=-0.38
molecule=CC(=O)Nc1cccc(C#Cc2cncnc2Nc2ccc(OCc3cccc(F)c3)c(Cl)c2)c1 endpoint=inhibition experimentalvalue=1.55
molecule="CC1=C(C(=O)Nc2cc(Cl)c3[nH]ncc3c2)C(c2ccc(C(F)(F)F)cc2)CC(=O)N1 (stereo not given)" endpoint=inhibition experimentalvalue=10.3
molecule=Cc1cccc(Nc2ncc(-c3ccccc3)o2)c1 endpoint=inhibition experimentalvalue=0.15
molecule=COC(=O)Nc1nc2ccc(S(=O)(=O)c3ccc(NC(=O)Nc4cc(C(F)(F)F)ccc4F)cc3)cc2[nH]1 endpoint=inhibition experimentalvalue=2.51

----------
Target: Tyrosine-protein kinase ZAP-70 (Homo sapiens)
Sequence (whole entry): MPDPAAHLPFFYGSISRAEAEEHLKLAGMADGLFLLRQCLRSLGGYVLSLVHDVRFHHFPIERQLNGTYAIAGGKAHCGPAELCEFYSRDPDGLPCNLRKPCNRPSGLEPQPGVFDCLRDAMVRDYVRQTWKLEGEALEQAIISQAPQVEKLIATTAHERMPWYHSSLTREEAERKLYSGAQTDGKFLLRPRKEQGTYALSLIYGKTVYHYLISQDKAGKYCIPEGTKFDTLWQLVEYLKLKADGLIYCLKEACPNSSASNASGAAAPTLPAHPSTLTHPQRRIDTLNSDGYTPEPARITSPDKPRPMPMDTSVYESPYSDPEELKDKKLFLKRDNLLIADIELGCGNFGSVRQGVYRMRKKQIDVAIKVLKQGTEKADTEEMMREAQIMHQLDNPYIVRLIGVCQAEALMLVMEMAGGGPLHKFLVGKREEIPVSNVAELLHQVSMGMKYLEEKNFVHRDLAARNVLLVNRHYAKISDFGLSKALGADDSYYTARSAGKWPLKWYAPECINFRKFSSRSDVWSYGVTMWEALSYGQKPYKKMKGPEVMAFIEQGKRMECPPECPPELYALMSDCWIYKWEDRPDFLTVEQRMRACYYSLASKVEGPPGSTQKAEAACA
Settings: at 1 µM
Description: GSK_PKIS: ZAP70 mean inhibition at 1 uM [Nanosyn]
// reported inhibition for each item listed
endpoint: inhibition (%)

smilesstring=Fc1ccc(-c2nn3ccccc3c2-c2ccncc2)cc1 experimentalvalue=2.32
smilesstring=CCNC(=O)O[C@H]1CN[C@H](C#Cc2cc3ncnc(Nc4ccc(OCc5cccc(F)c5)c(Cl)c4)c3s2)C1 experimentalvalue=-3.28
smilesstring=COc1cc2c(cc1Nc1nc(Nc3ccsc3C(N)=O)c3cc[nH]c3n1)N(C(=O)CN(C)C)CCC2(C)C experimentalvalue=14.9
smilesstring=COc1ccc(-c2cc(-c3c[nH]nc3-c3ccccn3)ccn2)cc1 experimentalvalue=2.09
smilesstring=COc1ccc(-c2nn3ncccc3c2-c2ccnc(Nc3ccc4c(c3)OCCO4)n2)cc1 experimentalvalue=-0.83

----------
Target: Dual specificity tyrosine-phosphorylation-regulated kinase 2 (Homo sapiens);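 note: reported values are means of DYRK2 inhibition from screening the GSK PKIS collection at 1 µM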
Sequence (whole entry): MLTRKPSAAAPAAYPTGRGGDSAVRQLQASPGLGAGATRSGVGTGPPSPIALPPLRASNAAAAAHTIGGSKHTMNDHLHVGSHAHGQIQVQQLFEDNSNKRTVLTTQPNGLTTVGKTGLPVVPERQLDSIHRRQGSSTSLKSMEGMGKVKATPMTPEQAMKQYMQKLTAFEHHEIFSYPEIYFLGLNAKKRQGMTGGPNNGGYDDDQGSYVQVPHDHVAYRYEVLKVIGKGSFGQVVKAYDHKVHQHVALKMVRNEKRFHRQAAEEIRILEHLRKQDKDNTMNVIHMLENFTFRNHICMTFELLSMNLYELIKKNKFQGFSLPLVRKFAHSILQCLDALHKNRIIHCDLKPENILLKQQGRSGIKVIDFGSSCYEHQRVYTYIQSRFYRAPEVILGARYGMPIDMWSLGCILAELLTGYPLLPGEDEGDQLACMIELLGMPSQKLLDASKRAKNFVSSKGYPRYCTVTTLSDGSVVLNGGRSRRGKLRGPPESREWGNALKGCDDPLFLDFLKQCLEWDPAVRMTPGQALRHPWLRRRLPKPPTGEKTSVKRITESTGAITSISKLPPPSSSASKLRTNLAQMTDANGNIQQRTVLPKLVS
Settings: at 1 µM
// reported inhibition for each item listed
endpoint: inhibition

smilesstring=CCn1cc(-c2ccnc3[nH]ccc23)c(-c2cccc(NC(=O)Nc3ccc(OCc4ccccc4)cc3)c2)n1 endpoint=inhibition experimentalvalue=-4.73%
smilesstring=Cc1cccc2c1NC(=O)/C2=N\Nc1ccc(S(N)(=O)=O)cc1 endpoint=inhibition experimentalvalue=3.24%
smilesstring=CCN1CCC(CC(=O)Nc2n[nH]c3nnc(-c4cccc(F)c4F)cc23)CC1 endpoint=inhibition experimentalvalue=5.64%
smilesstring=COc1cc2c(cc1Nc1nc(Nc3ccsc3C(N)=O)c3cc[nH]c3n1)N(C(=O)CN(C)C)CCC2(C)C endpoint=inhibition experimentalvalue=6.57%
smilesstring=COC(=O)Nc1nc2ccc(S(=O)(=O)c3ccc(NC(=O)Nc4cc(C(F)(F)F)ccc4F)cc3)cc2[nH]1 endpoint=inhibition experimentalvalue=3.12%
smilesstring=CCn1c(-c2nonc2N)nc2ccccc21 endpoint=inhibition experimentalvalue=5.28%
smilesstring=CCn1c(-c2nonc2N)nc2c(C#CC(C)(C)O)ncc(OC3CCNCC3)c21 endpoint=inhibition experimentalvalue=3.89%
smilesstring=COc1ccc(-c2nn3ncccc3c2-c2ccnc(Nc3ccc4c(c3)OCCO4)n2)cc1 endpoint=inhibition experimentalvalue=-3.08%
smilesstring=NC(=O)c1sc(-n2cnc3ccc(C(F)(F)F)cc32)cc1OCc1ccccc1Br endpoint=inhibition experimentalvalue=4.03%
smilesstring=Nc1nc(-c2ccc(F)cc2)c(-c2ccc3ncccc3n2)s1 endpoint=inhibition experimentalvalue=5.03%
smilesstring=CCCN1CCC(c2ccc(Nc3nc(Nc4cc(F)ccc4C(N)=O)c4cc[nH]c4n3)c(OC)c2)CC1 endpoint=inhibition experimentalvalue=49%
smilesstring=COC(=O)Nc1nc2ccc(Oc3ccc(NC(=O)Nc4cccc(Cl)c4)cc3)cc2[nH]1 endpoint=inhibition experimentalvalue=-2.41%
smilesstring=CC(=O)Nc1cccc(C#Cc2cncnc2Nc2ccc(OCc3cccc(F)c3)c(Cl)c2)c1 endpoint=inhibition experimentalvalue=1.41%
smilesstring=CNC(=O)c1cncc(/C=C/c2ccccc2Cl)c1 endpoint=inhibition experimentalvalue=1.49%
smilesstring=Fc1cccc(COc2ccc(Nc3ncnc4sc(-c5ccco5)cc34)cc2Cl)c1 endpoint=inhibition experimentalvalue=0.35%
smilesstring=COc1ccc(-c2oc3ncnc(N)c3c2-c2ccc(NC(=O)Nc3cc(C(F)(F)F)ccc3F)cc2)cc1 endpoint=inhibition experimentalvalue=5.52%
smilesstring=CCOc1ccc2c(-c3ccnc(Nc4cccc(C(F)(F)F)c4)n3)cnn2n1 endpoint=inhibition experimentalvalue=0.78%
smilesstring=COc1cccc(-c2c[nH]c3c(N/N=C/c4ccncc4)ncnc23)c1 endpoint=inhibition experimentalvalue=57.8%
smilesstring=c1ccc(-c2nc3n(c2-c2ccc4c(c2)OCO4)CCC3)nc1 endpoint=inhibition experimentalvalue=1.95%
smilesstring=CNC(=O)c1cc(-c2ccc(F)cc2)cc(-c2ccc(S(=O)(=O)N3CCCC3)cc2)c1N endpoint=inhibition experimentalvalue=2.03%

----------
// reported inhibition for each item listed
molecular target: Mitogen-activated protein kinase 14 (Homo sapiens); details: at 1 µM;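 note: values are mean percent inhibition of p38alpha kinase activity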
endpoint: inhibition (%)

compound=NS(=O)(=O)c1ccc(N/N=C2\C(=O)Nc3ccc4ncccc4c32)cc1 experimentalvalue=12.3
compound="CC1=C(C(=O)Nc2cc(Cl)c3[nH]ncc3c2)C(c2ccc(C(F)(F)F)cc2)CC(=O)N1 (stereo not given)" experimentalvalue=6.81
compound=CCn1c(-c2nonc2N)nc2c(C#CC(C)(C)O)nc(OC[C@H](N)c3ccccc3)cc21 experimentalvalue=7.11
compound=Nc1nc(-c2ccc(F)cc2)c(-c2ccc3ncccc3n2)s1 experimentalvalue=76.4
compound=O=C(O[C@H]1CN[C@H](C#Cc2cc3ncnc(Nc4ccc(Cc5ccccc5)cc4)c3s2)C1)N1CCOCC1 experimentalvalue=2.37
compound=COc1cc(Nc2nccc(Nc3ccc4c(C)n[nH]c4c3)n2)cc(OC)c1OC experimentalvalue=10
compound=N#Cc1c(NC(=O)CN2CCOCC2)sc2c1CCCC2 experimentalvalue=9.2
compound=COc1ccc(-c2cc3c(N)ncnc3o2)cc1 experimentalvalue=0.41
compound=COc1cccc(-n2ncc3c(N/N=C/c4ccc(F)cc4)ncnc32)c1 experimentalvalue=7.4
compound=N#Cc1c(NC(=O)c2ccc(F)cc2)sc2c1CCCC2 experimentalvalue=3.42

----------
target: Receptor tyrosine-protein kinase erbB-4 (Homo sapiens); settings: at 0.1 µM;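 note: values are averaged percent inhibition of ERBB4 kinase activity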
// reported inhibition for each item listed
endpoint: inhibition (%)

smilesstring=CCN(CC)S(=O)(=O)c1ccc(OC)c(Nc2ncc(-c3ccccc3)o2)c1 endpoint=inhibition unittag=% experimentalvalue=7.08
smilesstring=CS(=O)(=O)CCNCc1coc(-c2ccc3ncnc(Nc4ccc(OCc5ccccc5)cc4)c3c2)c1 endpoint=inhibition unittag=% experimentalvalue=55.3
smilesstring=Nc1nc(-c2ccc(F)cc2)c(-c2ccc3ncccc3n2)s1 endpoint=inhibition unittag=% experimentalvalue=16.8
smilesstring=CCNC(=O)O[C@H]1CN[C@H](C#Cc2cc3ncnc(Nc4ccc(OCc5cccc(F)c5)c(Cl)c4)c3s2)C1 endpoint=inhibition unittag=% experimentalvalue=94.2
smilesstring=COC(=O)c1sc(-n2cnc3cc(OC)c(OC)cc32)cc1OCc1ccccc1C(F)(F)F endpoint=inhibition unittag=% experimentalvalue=8.62
smilesstring=CNC(=O)c1cncc(/C=C/c2ccccc2Cl)c1 endpoint=inhibition unittag=% experimentalvalue=3.2
smilesstring=O=S(=O)(CCNCc1ccc(-c2ccc3ncnc(Nc4ccc(OCc5cccc(F)c5)c(Cl)c4)c3c2)o1)c1ccccc1 endpoint=inhibition unittag=% experimentalvalue=36.4
